system: SK-OV-3 ovarian cancer cell line; assay: Inhibitory activity against ovarian cancer cell lines, agents alone (Celltiter glo cell viability); format: cell-based; details: SK-OV3; agent alone; 72 hours
Assay metric: IC50 (µM)

1) N.N.[Cl][Pt][Cl] [Cisplatin, cisplatin] ... 12.3

----------
IC50 by entry:
system: OVCAR3 ovarian cancer cell line; experiment: Synergistic effect of PHI-101 and olaparib (Celltiter glo viability, Combination Index by CalcuSyn); format: cell-based; settings: Homo sapiens, OVCAR-3, Table 7, combination index experiment, 72 hours
Assay metric: IC50 (µM)

1. NC(=O)Nc1cc(C#Cc2cccc(F)c2)sc1C(=O)N[C@H]1CCCNC1 [PHI-101] ... 3.5
2. O=C(c1cc(Cc2n[nH]c(=O)c3ccccc23)ccc1F)N1CCN(C(=O)C2CC2)CC1 [Olaparib, olaparib] ... 96.5

----------
test system: CAOV3 ovarian cancer cell line; assay: Inhibitory activity against ovarian cancer cell lines, agents alone (Celltiter glo cell viability); type: cell-based; settings: Homo sapiens, Caov-3, Table 4, values used to establish treatment starting concentrations
Assay metric: IC50 (nM)

1. NC(=O)Nc1cc(C#Cc2cccc(F)c2)sc1C(=O)N[C@H]1CCCNC1 ... 524

----------
Reported IC50 values for the following compounds.
system: OVCAR3 ovarian cancer cell line; test: Inhibitory activity against ovarian cancer cell lines, agents alone (Celltiter glo cell viability); format: cell-based; settings: Homo sapiens, OVCAR-3, agent alone, 72 hours
Assay metric: IC50 (µM)

1. CC(=O)O[C@H]1C(=O)[C@@]2(C)[C@H]([C@H](OC(=O)c3ccccc3)[C@]3(O)C[C@H](OC(=O)[C@H](O)[C@@H](NC(=O)c4ccccc4)c4ccccc4)C(C)=C1C3(C)C)[C@]1(OC(C)=O)CO[C@@H]1C[C@@H]2O [Paclitaxel, paclitaxel] ... 5.7
2. NC(=O)Nc1cc(C#Cc2cccc(F)c2)sc1C(=O)N[C@H]1CCCNC1 [PHI-101] ... 2.7
3. COc1cccc(OCCCN)c1-c1cc(Nc2cnc(C#N)cn2)n[nH]1 [Prexasertib, prexasertib] ... 6.3
4. O=C(c1cc(Cc2n[nH]c(=O)c3ccccc23)ccc1F)N1CCN(C(=O)C2CC2)CC1 [Olaparib, olaparib] ... 96.5
5. CC[C@@]1(O)C(=O)OCc2c1cc1n(c2=O)Cc2cc3c(CN(C)C)c(O)ccc3nc2-1 [Topotecan, topotecan] ... 8.3
